target: Hck (UniProt P08631); assay: phosphorylation enrichment, bacterial display (enrichment ratio); higher = better substrate or ligand; peptides without Tyr show the background
Sequence (P08631 whole entry, looked up): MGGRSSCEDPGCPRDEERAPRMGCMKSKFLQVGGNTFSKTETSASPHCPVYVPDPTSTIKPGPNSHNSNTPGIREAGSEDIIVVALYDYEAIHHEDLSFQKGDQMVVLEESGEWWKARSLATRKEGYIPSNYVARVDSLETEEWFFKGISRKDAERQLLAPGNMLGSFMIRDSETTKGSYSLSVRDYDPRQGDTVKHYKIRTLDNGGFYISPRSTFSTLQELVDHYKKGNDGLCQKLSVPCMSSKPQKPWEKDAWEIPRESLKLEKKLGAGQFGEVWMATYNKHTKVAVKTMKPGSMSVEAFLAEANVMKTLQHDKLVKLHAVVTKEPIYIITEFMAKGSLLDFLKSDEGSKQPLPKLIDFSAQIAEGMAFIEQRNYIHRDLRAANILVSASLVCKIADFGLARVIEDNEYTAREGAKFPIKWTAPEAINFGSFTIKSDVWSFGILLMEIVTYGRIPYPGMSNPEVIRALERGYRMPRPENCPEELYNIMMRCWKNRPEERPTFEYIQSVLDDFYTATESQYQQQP
Would you mind sorting the entries by phosphorylation enrichment according to these classes? one (below 0.4), two (0.4 to below 0.6), three (0.6 or more)

Example results:
| sequence record | cat |
| --- | --- |
| TQTPPYVKKHP [LARP1B_Y457] | one |
| VVTGPYEKPSL [KIR3DS1_Y221_L220P] | two |
| ASRKFYAMKIL [AKT3_Y174_G171R_YF] | two |

// query Which class does VSSPKYGSDDE [TMCC2_Y473] fall in?
// result two

// query Which class does SPYAVYRFFTF [RPGRIP1_Y826] fall in?
// result three

// query Which class does LAVPLYKNGVK [CPS1_Y1069] fall in?
// result two

// query Which class does QPGTDYKIYLY [FN1_Y1970] fall in?
// result three

// query Which class does QGCSIYKDFFR [PLA2G2D_Y82_YF] fall in?
// result three

// query Which class does EASEQYLTKAS [NRCAM_Y739] fall in?
// result two

// query Which class does SPYAVYLFFTF [RPGRIP1_Y826_R827L] fall in?
// result two

// query Which class does AALSAYAAQRP [PTPRN2_Y249] fall in?
// result one

// query Which class does SLDLSYYTTSS [EMD_Y181_P183T] fall in?
// result two

// query Which class does `TDGIAYEFRVT` fall in?
// result two

// query Which class does IYHLSYHHNCE [PDE6B_Y227_L228H] fall in?
// result three

// query Which class does LAAPKYKLNVD [SMARCA2_Y1190_A1188P] fall in?
// result two

// query Which class does HSRTRYERNIE [F2_Y434] fall in?
// result three

// query Which class does AGARMYGVLPW [PLP1_Y207_D203G] fall in?
// result three

// query Which class does LQTYHYHGHSM [PDHA1_Y289_R288H] fall in?
// result three

// query Which class does TVDASYCGGRG [ANTXR2_Y380_Y381C] fall in?
// result two

// query Which class does DPLLTYWFPPK [LMNA_Y481_R482W] fall in?
// result three

// query Which class does IKNSGYISRYL [EIF2AK3_Y585] fall in?
// result one

// query Which class does EEEFEYMNRRR [ERBB3_Y1199_D1194E_YF] fall in?
// result two

// query Which class does QISQDYGVLLE [PRDX3_Y172_R170Q] fall in?
// result three

// query Which class does VLNHAYENLTR [SYNE2_Y3255_D3253H] fall in?
// result one

* * *

target: c-Src SH2; test: SH2 binding enrichment of the phosphorylated peptide, bacterial display (enrichment ratio); higher = better substrate or ligand; peptides without Tyr show the background;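 also: peptide library displayed on the E. coli surface as eCPX fusions, selected cells deep-sequenced, score is each peptide's frequency after selection divided by its frequency in the input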
# SH2 binding enrichment per entry
The reply should be a number, written without any unit.

Observe how each entry below is paired with its result.
| sequence record | experimental readout | observed value |
| --- | --- | --- |
| LEHCQYVTQKV [ALDOB_Y204_E207Q] | SH2 binding enrichment | 0.731 |
| EAEPYYCSLRD [NPHS1_Y1139_R1140C] | SH2 binding enrichment | 1.91 |
| GAVGNYSRGLA [MGMT_Y158_G160R] | SH2 binding enrichment | 0.39 |
| DPEGAYTTRGG [EPHA3_Y779_A777G] | SH2 binding enrichment | 0.524 |
| GTTIHYNFMCN [TP53_Y234_C229G_YF] | SH2 binding enrichment | 0.603 |
| RNVYYYSYLLK [PTEN_Y178_Y174N] | SH2 binding enrichment | 1.61 |

// query Dear colleague, I am looking for the recorded SH2 binding enrichment of the following sequence: ALEKTYNTFRS [B4GALNT2_Y538_YF]
// result 0.457

* * *

molecular target: MERTK (UniProt Q12866); assay: phosphorylation enrichment, bacterial display (enrichment ratio); higher = better substrate or ligand; peptides without Tyr show the background
Sequence (Q12866 whole entry, looked up): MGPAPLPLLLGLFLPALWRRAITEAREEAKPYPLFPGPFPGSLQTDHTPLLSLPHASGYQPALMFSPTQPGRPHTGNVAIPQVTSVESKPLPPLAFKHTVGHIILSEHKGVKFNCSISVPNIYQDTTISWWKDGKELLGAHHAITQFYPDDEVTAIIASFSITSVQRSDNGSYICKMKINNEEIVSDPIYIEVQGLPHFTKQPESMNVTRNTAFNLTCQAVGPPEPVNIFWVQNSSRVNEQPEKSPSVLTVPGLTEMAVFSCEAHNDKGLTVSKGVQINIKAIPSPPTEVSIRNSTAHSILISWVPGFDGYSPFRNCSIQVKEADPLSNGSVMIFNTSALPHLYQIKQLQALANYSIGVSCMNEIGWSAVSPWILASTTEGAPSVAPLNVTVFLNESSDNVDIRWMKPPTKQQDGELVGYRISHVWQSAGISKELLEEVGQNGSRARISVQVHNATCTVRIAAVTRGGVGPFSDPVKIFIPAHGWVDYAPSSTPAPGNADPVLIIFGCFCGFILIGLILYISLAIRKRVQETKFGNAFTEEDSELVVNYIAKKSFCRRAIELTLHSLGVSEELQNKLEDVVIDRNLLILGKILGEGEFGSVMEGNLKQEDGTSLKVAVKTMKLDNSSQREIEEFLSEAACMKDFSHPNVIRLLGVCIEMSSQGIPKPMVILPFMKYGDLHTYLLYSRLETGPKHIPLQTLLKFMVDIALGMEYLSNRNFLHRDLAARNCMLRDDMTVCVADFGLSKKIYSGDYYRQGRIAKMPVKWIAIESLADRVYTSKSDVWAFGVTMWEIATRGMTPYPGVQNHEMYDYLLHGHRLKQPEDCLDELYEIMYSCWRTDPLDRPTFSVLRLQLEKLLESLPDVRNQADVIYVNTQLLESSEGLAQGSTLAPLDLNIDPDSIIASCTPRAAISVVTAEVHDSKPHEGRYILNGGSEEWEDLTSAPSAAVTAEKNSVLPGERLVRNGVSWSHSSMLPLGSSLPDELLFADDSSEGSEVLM
Note to self: values exactly at 0.5 are Yes. So phosphorylation enrichment at or above 0.5 is Yes, below is No.

Example results:
| sequence record | cat |
| --- | --- |
| CRWKRYQCSHD [GDPD5_Y30_R32C] | No |
| IDPYIYTPFGS [CYP3A4_Y432] | Yes |

// query Hi team, for GMAHNYRNRSQ [AASS_Y188_S191R] , is the recorded phosphorylation enrichment at or above 0.5?
// result No

* * *

biological target: MERTK (UniProt Q12866); test: phosphorylation enrichment, bacterial display (enrichment ratio); higher = better substrate or ligand; peptides without Tyr show the background
Note to self: values exactly at 0.6 are Criterion met. So phosphorylation enrichment at or above 0.6 is Criterion met, below is Criterion not met.

Example results:
| sequence record | cat |
| --- | --- |
| DRFANYIEKVR [DES_Y122] | Criterion not met |
| QRPFVYFFSFL [PTEN_Y176_R173P_YF] | Criterion met |
| IKNSGYISRYL [EIF2AK3_Y585] | Criterion not met |
| PLRAFYLIARV [HLCS_Y635_D634Y_YF] | Criterion met |
| LTAEVYFPSIK [C5orf64_Y60] | Criterion met |
| ASTDFNKRGDF [PDHA1_Y243_Y243N_YF] | Criterion not met |

Pending sequence:
// query Hi team, for TEVRRYVLPLN [RPE65_Y368_P363T] , is the recorded phosphorylation enrichment at or above 0.6?
// result Criterion not met

* * *

target: EPHB1 (UniProt P54762); experiment: phosphorylation enrichment, bacterial display (enrichment ratio); higher = better substrate or ligand; peptides without Tyr show the background
Sequence (P54762 whole entry, looked up): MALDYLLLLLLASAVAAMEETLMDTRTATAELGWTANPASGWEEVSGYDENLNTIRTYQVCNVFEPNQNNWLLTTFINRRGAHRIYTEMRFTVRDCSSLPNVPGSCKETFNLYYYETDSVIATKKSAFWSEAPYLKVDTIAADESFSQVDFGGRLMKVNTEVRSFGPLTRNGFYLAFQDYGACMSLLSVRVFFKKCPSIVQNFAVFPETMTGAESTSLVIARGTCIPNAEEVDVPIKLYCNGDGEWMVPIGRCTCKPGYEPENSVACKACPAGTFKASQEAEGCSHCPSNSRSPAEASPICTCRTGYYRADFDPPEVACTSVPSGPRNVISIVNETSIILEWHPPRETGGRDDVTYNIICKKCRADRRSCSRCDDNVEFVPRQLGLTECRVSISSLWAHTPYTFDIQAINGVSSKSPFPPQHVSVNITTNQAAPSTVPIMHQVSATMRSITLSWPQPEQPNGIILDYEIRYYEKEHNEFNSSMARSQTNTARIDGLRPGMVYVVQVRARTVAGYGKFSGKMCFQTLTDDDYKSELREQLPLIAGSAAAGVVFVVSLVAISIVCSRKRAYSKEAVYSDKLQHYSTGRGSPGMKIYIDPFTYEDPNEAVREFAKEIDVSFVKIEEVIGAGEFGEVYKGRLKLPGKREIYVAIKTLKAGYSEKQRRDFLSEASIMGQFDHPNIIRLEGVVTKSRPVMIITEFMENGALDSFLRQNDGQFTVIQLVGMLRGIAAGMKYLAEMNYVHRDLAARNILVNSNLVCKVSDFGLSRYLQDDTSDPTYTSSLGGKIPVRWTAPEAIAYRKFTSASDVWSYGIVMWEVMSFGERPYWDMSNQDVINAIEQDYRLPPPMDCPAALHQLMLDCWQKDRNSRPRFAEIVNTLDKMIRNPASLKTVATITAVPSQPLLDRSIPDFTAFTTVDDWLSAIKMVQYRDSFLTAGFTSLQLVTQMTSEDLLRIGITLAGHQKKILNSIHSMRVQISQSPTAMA
Note to self: values exactly at 0.5 are y. So phosphorylation enrichment at or above 0.5 is y, below is n.

| sequence record | cat |
| --- | --- |
| DPGVSYRTREE [PDHA1_Y301] | n |
| QQLDEYQKLLD [LMNA_Y359_E361K] | y |
| FPLELYERVRM [PRKCG_Y312_YF] | y |
| NKPTVYGVSPN [ABL1_Y226] | n |
| FSGDCYRIQGR [DDR2_Y741_Y740C_YF] | y |

// query Hi team, for QPGTDYKIYLY [FN1_Y1970] , is the recorded phosphorylation enrichment at or above 0.5?
// result y

// query Hi team, for FDFKKYGKGLR [ZNF445_Y433_YF] , is the recorded phosphorylation enrichment at or above 0.5?
// result n

// query Hi team, for RPPFTYATLIR [FOXP3_Y342] , is the recorded phosphorylation enrichment at or above 0.5?
// result y

// query Hi team, for ESFCLYPPVPQ [CYP4B1_Y377_R375C] , is the recorded phosphorylation enrichment at or above 0.5?
// result y

// query Hi team, for FQEKGYNKELR [CHRND_Y38] , is the recorded phosphorylation enrichment at or above 0.5?
// result n

// query Hi team, for YFWDGYMPRQY [GSS_Y270_R267W] , is the recorded phosphorylation enrichment at or above 0.5?
// result y

// query Hi team, for DYLEKYYKFGS [NNMT_Y24] , is the recorded phosphorylation enrichment at or above 0.5?
// result n

// query Hi team, for LLKANYELLNA [POLR3A_Y714_K713N] , is the recorded phosphorylation enrichment at or above 0.5?
// result y

// query Hi team, for TFRPPYFHRDC [HGD_Y333_N337D_YF] , is the recorded phosphorylation enrichment at or above 0.5?
// result n

* * *

target: EPHB1 (UniProt P54762); assay: phosphorylation enrichment, bacterial display (enrichment ratio); higher = better substrate or ligand; peptides without Tyr show the background
experimental readout: phosphorylation enrichment
The reply should be a number, written without any unit.

Observe how each entry below is paired with its result.
| sequence record | phosphorylation enrichment |
| --- | --- |
| GFSRHCEDGFP [CTNND1_Y217_Y217C_YF] | 0.497 |
| YIATQYSLCPR [LBR_Y166_R169C] | 0.511 |
| LSDGPYSNPFE [EPOR_Y485_YF] | 0.547 |
| LFHENYNAGTY [CFI_Y421_I416L] | 0.521 |
| TAGFSYEKWEI [TEC_Y360] | 0.472 |

// query Dear colleague, I am looking for the recorded phosphorylation enrichment of the following sequence: RVFIKYLPEWT [PSEN1_Y240_L235R]
// result 1.15

// query Dear colleague, I am looking for the recorded phosphorylation enrichment of the following sequence: RQEEEYKRLSE [SFSWAP_Y133]
// result 0.574

// query Dear colleague, I am looking for the recorded phosphorylation enrichment of the following sequence: NELTFYCCKKD [CD59_Y87_YF]
// result 0.514

// query Dear colleague, I am looking for the recorded phosphorylation enrichment of the following sequence: NLMPAYYKCIQ [CYP21A2_Y190]
// result 0.708

// query Dear colleague, I am looking for the recorded phosphorylation enrichment of the following sequence: DAHFTYSRFPW [LY75_Y888_D884A_YF]
// result 2.72

// query Dear colleague, I am looking for the recorded phosphorylation enrichment of the following sequence: EFISEYCGEII [EZH2_Y641]
// result 0.901

// query Dear colleague, I am looking for the recorded phosphorylation enrichment of the following sequence: TLQWMYGCDVG [HLA-B_Y123_S121W]
// result 0.744

// query Dear colleague, I am looking for the recorded phosphorylation enrichment of the following sequence: TFVVLYDAELT [ERCC4_Y581_R576T_YF]
// result 1.18

// query Dear colleague, I am looking for the recorded phosphorylation enrichment of the following sequence: ASENVYVNIAH [CTSC_Y150]
// result 1.92

// query Dear colleague, I am looking for the recorded phosphorylation enrichment of the following sequence: GDPVQYNRTTD [MLPH_Y454]
// result 0.521

// query Dear colleague, I am looking for the recorded phosphorylation enrichment of the following sequence: IKSSIYDNRNE [ARAP2_Y380_K384N]
// result 0.413
